Biological target: [MCL-1]-[compound of formula (I)]-[CRBN/DDB1] complex (Homo sapiens, UniProt Q07820+Q96SW2)
Sequence (Q07820 whole entry): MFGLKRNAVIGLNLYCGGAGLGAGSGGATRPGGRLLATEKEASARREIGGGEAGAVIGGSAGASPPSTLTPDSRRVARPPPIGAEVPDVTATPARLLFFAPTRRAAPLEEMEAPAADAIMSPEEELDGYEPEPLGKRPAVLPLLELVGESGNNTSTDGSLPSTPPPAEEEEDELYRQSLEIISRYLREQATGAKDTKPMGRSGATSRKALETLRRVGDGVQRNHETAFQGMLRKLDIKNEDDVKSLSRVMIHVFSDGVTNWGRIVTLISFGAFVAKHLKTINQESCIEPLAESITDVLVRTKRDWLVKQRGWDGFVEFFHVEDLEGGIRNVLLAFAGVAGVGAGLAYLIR
Sequence (Q96SW2 whole entry): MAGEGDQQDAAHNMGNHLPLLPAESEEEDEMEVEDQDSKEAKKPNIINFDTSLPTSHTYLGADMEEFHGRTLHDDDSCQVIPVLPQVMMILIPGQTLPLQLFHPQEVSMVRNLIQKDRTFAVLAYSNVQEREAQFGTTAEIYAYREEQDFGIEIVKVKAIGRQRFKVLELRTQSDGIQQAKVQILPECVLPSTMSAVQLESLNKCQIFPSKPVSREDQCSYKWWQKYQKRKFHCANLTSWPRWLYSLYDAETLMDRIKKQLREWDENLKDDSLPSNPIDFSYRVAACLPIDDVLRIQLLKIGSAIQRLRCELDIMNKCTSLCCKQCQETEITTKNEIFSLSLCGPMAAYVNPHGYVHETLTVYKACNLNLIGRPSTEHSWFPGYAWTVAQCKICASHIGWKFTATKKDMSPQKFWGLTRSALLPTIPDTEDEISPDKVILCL
Sequence (Q16531 whole entry partner): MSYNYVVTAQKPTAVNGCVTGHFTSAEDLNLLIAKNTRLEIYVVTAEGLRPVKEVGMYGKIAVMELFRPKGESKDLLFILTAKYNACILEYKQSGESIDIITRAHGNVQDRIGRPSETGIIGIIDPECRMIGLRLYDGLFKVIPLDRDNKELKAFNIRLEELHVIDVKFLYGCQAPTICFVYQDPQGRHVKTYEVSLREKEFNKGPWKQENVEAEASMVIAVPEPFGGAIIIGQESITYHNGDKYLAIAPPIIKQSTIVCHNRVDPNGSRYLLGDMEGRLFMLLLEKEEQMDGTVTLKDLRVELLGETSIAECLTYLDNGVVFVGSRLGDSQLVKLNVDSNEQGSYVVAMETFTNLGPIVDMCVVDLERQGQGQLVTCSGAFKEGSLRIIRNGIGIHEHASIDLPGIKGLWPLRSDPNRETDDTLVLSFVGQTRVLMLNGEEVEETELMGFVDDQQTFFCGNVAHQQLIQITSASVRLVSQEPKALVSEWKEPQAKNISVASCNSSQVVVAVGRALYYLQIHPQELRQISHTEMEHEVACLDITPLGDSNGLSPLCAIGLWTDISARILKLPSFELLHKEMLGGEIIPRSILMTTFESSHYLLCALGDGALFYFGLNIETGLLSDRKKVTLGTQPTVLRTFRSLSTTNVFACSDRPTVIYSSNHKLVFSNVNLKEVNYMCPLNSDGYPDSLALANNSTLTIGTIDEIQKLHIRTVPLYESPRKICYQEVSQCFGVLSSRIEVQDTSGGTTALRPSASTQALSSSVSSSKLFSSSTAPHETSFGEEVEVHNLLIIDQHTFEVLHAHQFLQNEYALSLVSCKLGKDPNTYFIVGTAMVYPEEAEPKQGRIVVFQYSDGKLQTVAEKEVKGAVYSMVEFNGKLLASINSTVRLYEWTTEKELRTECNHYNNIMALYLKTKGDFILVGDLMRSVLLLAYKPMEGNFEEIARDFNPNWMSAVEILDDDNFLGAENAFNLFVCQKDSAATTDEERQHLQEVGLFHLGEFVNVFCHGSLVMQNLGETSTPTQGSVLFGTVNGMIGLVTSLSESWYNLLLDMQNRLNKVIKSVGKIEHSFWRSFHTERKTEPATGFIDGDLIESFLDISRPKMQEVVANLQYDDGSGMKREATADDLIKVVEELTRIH
Experiment: AlphaLISA dose response ternary complex formation assay
Assay type: binding
Conditions: read-out: AlphaLISA dose response Average pEC50 by molecule (converted)
quantity_name: EC50

- Cc1nn(C)c(C)c1-c1c(Cl)ccc2c(CCCOc3cccc4ccccc34)c(C(=O)O)n(CCN3CCN(C(=O)Cn4c(C)nc5c(C(=O)NC6CCC(=O)NC6=O)cccc54)CC3)c12 (centres unmarked): < 0.1 µM
- Cc1nn(C)c(C)c1-c1c(Cl)ccc2c(CCCOc3cccc4ccccc34)c(C(=O)O)n(CCN3CCN(C(=O)COc4cccc5c4C(=O)N(C4CCC(=O)NC4=O)C5=O)CC3)c12 (centres unmarked): < 0.1 µM
- Cc1nn(C)c(C)c1-c1c(Cl)ccc2c(CCCOc3cccc4cc(F)ccc34)c(C(=O)O)n(CCN3CCN(C(=O)[C@@H](C)Oc4cccc5c4C(=O)N(C4CCC(=O)NC4=O)C5=O)CC3)c12 (some centres unmarked): < 0.1 µM
- Cc1nn(C)c(C)c1-c1c(Cl)ccc2c(CCCOc3cccc4ccc(F)cc34)c(C(=O)O)n(CCN3CCN(C(=O)COc4cccc5c4CN(C4CCC(=O)NC4=O)C5=O)CC3)c12 (centres unmarked): < 0.1 µM
- Cc1nn(CCCOCCOCCNc2cccc3c2C(=O)N(C2CCC(=O)NC2=O)C3=O)c(C)c1-c1cccc2c(CCCOc3cccc4ccccc34)c(C(=O)O)n(CCN3CCOCC3)c12 (centres unmarked): < 1 µM
- Cc1nn(C)c(C)c1-c1c(Cl)ccc2c(CCCOc3cccc4cc(F)ccc34)c(C(=O)O)n(CCCNC(=O)COc3cccc4c3CN(C3CCC(=O)NC3=O)C4=O)c12 (centres unmarked): < 0.1 µM
- Cc1nn(C)c(COc2ccc(N3CCN(S(=O)(=O)N(C)C)CC3)cc2)c1-c1cccc2c(CCCOc3cccc4ccccc34)c(C(=O)O)n(CCN3CCN(C(=O)COc4ccc5c(c4)C(=O)N(C4CCC(=O)NC4=O)C5=O)CC3)c12 (centres unmarked): < 1 µM
- Cc1nn(C)c(C)c1-c1c(Cl)ccc2c(CCCOc3cccc4cc(F)ccc34)c(C(=O)O)n(CCN3CCN(C(=O)[C@@H](C)Oc4cccc5c4C(=O)N([C@H]4CCC(=O)NC4=O)C5=O)CC3)c12 (single isomer, unassigned): < 0.1 µM
- Cc1nn(C)c(COc2ccc(N3CCN(S(=O)(=O)N(C)C)CC3)cc2)c1-c1cccc2c(CCCOc3cccc4ccccc34)c(C(=O)O)n(CCN3CCN(C(=O)COc4cccc5c4CN(C4CCC(=O)NC4=O)C5=O)CC3)c12 (centres unmarked): < 0.1 µM
- Cc1nn(C)c(COc2ccc(N3CCN(S(=O)(=O)N(C)C)CC3)cc2)c1-c1cccc2c(CCCOc3cccc4ccccc34)c(C(=O)O)n(CCN3CCN(C(=O)CNc4cccc5c4C(=O)N(C4CCC(=O)NC4=O)C5=O)CC3)c12 (centres unmarked): < 1 µM
- Cc1nn(C)c(C)c1-c1c(Cl)ccc2c(CCCOc3cccc4ccccc34)c(C(=O)O)n(CCN3C[C@@H]4C[C@H]3CN4C(=O)COc3cccc4c3CN(C3CCC(=O)NC3=O)C4=O)c12 (some centres unmarked): < 0.1 µM

This collection of values is drawn from patent US20240294499A1.
